assay: Acute administration in DIO mice in home cages: food intake and plasma BHB-Phe; format: in vivo, mouse; conditions: mouse, plasma; 50 mg/kg IP, single; read-out: time of peak plasma level
measured attribute: Tmax (h)
Please respond with the number in h and leave the unit unwritten.

Lookup result for CC(O)CC(=O)N[C@@H](Cc1ccccc1)C(=O)O (stereo partly shown) [BHB-Phe, N-betahydroxybutyryl-phenylalanine] ; measured Tmax: 1
